Overview of reported composite z-score across a group of compounds:
- Test system: Lefty1
- test.name: Lefty1 binders on small-molecule microarrays, primary screen, biochemical, small-molecule microarray, 635/667 nm fluorescence (AID 1139)
- condition.summary: small-molecule microarray binding, fluorescence 635/667; higher = more signal

compound	composite z-score
C=C[C@@H](COC(C)=O)NS(=O)(=O)c1ccc(Br)cc1	0.283
CN1C(=O)[C@@]2(CCS(=O)(=O)c3ccccc3)N=C(c3ccc(OCCCO)cc3)O[C@H]2c2ccccc21	0.358
CC=CC(O)C1C=CC2C(=O)N(c3ccccc3)C(=O)C2N1Nc1ccccc1 (stereo not drawn)	0.493
C=CCOC(=O)[C@H]1[C@@H]2C(=O)O[C@@H](c3ccccc3)[C@@H](c3ccccc3)N2[C@@H](c2ccc(OCCOC(=O)[C@H]3C[C@H]4C(=O)N[C@@H](CCCC[N+](C)(C)C)C(=O)N4[C@H]3c3cccc(OCCO)c3)cc2)[C@]12C(=O)Nc1ccc(I)cc12	0.761
COC(=O)[C@H](Cc1ccccc1)N1CC(/C=C/C2CC2)=C[C@@H]1[C@@H](O)Cc1ccccc1	1.26
COCC(=C=CC[C@H](O)c1cccc(OCCO)c1)C[C@H](O)c1ccccn1	1.37
O=C(NC1CC1)[C@@H]1c2ccccc2C(=O)N(Cc2ccccc2)[C@H]1c1ccc(CO)cc1	0.626
O=C(N1CCCCC1)[C@@]1(Cc2ccccc2)COC(c2ccc(OCCCO)cc2)=N1	-0.211

* * *

- assay.system: Luciferin 4-monooxygenase (Photinus pyralis)
- test.name: firefly luciferase enzyme inhibitors, primary screen, biochemical, luminescence, purified enzyme, 2006 set (AID 1141);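 note: cell-free assay with purified firefly luciferase at 100 ng per well in PBS; test concentration not given here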
- condition.summary: SteadyGlo luminescence, 30 min, called active from +8 up or from −8 down
Activity calls are given as the source filed them.
Possible outcomes: true (1) = active, false (0) = inactive

molecule	assay.system	label
CCOC(=O)C1=CC[C@@H](c2ccc([N+](=O)[O-])cc2)N(S(=O)(=O)c2ccc(C)cc2)[C@H]1c1ccccc1	Luciferin 4-monooxygenase (Photinus pyralis)	false (0)
COCCCNC(=O)[C@@H]1c2ccccc2C(=O)N(Cc2ccccc2C(F)(F)F)[C@H]1c1ccc(CO)cc1	Luciferin 4-monooxygenase (Photinus pyralis)	false (0)
C#CCNC(=O)[C@H](Cc1ccccc1)NC(=O)[C@@H](N=[N+]=[N-])C(C)C	Luciferin 4-monooxygenase (Photinus pyralis)	false (0)
CCOc1cc(C(O)C2C=CC3C(=O)N(C4CCCCC4)C(=O)C3N2Nc2ccc(OC)cc2)ccc1O (configuration not stated)	Luciferin 4-monooxygenase (Photinus pyralis)	false (0)
CCOC(=CC(=O)OC)CC(O)c1cccc(Cl)c1 (configuration not stated)	Luciferin 4-monooxygenase (Photinus pyralis)	false (0)
COC(=O)Cn1c(C(=O)N2CCCC2)cc2c1C[C@H]1CN(C(=O)c3ccccc3)[C@@](Cc3ccc(F)cc3)(C(=O)OC)[C@@H]21	Luciferin 4-monooxygenase (Photinus pyralis)	false (0)
C=CCN1C(=O)[C@@]2(O[C@@H](CCn3cc([C@H](O)c4ccccc4)nn3)[C@H]([Si](C)(C)c3ccc(OC)cc3)[C@H]2C)c2ccccc21	Luciferin 4-monooxygenase (Photinus pyralis)	false (0)
O=C(NC1CC1)[C@@H]1c2ccccc2C(=O)N(Cc2ccccc2)[C@H]1c1ccc(CO)cc1	Luciferin 4-monooxygenase (Photinus pyralis)	false (0)
C[C@]1(C(=O)NCCN2CCOCC2)c2ccccc2C(=O)N(Cc2ccc(OC(F)(F)F)cc2)[C@H]1c1ccc(CO)cc1	Luciferin 4-monooxygenase (Photinus pyralis)	false (0)
CN(C)CCCNC(=O)[C@@H]1c2ccccc2C(=O)N(Cc2ccc(OC(F)(F)F)cc2)[C@H]1c1ccc(CO)cc1	Luciferin 4-monooxygenase (Photinus pyralis)	false (0)
CC(C)(C)OC(=O)CC[C@]1(C(=O)NCCN2CCOCC2)N=C(c2ccc(OCCCO)cc2)O[C@H]1c1ccccc1N=[N+]=[N-]	Luciferin 4-monooxygenase (Photinus pyralis)	true (1)
CCC[C@@H]1C[C@@]1(CCC)[C@@H](NP(=O)(c1ccccc1)c1ccccc1)c1ccc(Cl)cc1	Luciferin 4-monooxygenase (Photinus pyralis)	false (0)
COCCCNC(=O)[C@@]1(Sc2ccc(C)cc2)CC(=O)N(C2Cc3ccccc3C2)[C@@H]1c1ccc(CO)cc1I	Luciferin 4-monooxygenase (Photinus pyralis)	false (0)
COC(=O)C(CC#Cc1ccc2c(c1)[C@]1(C(=O)N2)[C@H](C(=O)O)[C@H]2C(=O)O[C@H](c3ccccc3)[C@H](c3ccccc3)N2[C@@H]1c1ccccc1OCCO)C(=O)OC	Luciferin 4-monooxygenase (Photinus pyralis)	false (0)
CCCN1C(=O)[C@]2(Cc3ccccc3)N=C(c3ccc(OCCCO)cc3)O[C@@H]2c2ccccc21	Luciferin 4-monooxygenase (Photinus pyralis)	false (0)
C=CC[C@H](OC(=O)Nc1ccc(OC)cc1)c1ccc(O)c2ccccc12	Luciferin 4-monooxygenase (Photinus pyralis)	false (0)
C=C(C(=O)CC[C@H](OC(=O)c1cccnc1)c1cccc(OCCO)c1)C(C)C	Luciferin 4-monooxygenase (Photinus pyralis)	false (0)
CN1C(=O)[C@@]2(CCS(=O)(=O)c3ccccc3)N=C(c3ccc(OCCCO)cc3)O[C@H]2c2ccccc21	Luciferin 4-monooxygenase (Photinus pyralis)	false (0)
COCCCNC(=O)[C@@]1(Sc2ccc(C)cc2)CC(=O)N(Cc2cc(C(F)(F)F)cc(C(F)(F)F)c2)[C@@H]1c1ccc(CO)cc1	Luciferin 4-monooxygenase (Photinus pyralis)	false (0)
COc1ccc(NC(=O)O[C@H]2[C@H](OC(=O)Nc3ccc4c(c3)OCO4)[C@@H](OC(=O)Nc3ccc4c(c3)OCO4)[C@@H](OC)O[C@@H]2CO)cc1	Luciferin 4-monooxygenase (Photinus pyralis)	false (0)
CC(C)CNC(=O)[C@@H]1c2ccccc2C(=O)N(Cc2cc(F)cc(C(F)(F)F)c2)[C@H]1c1ccc(CO)cc1	Luciferin 4-monooxygenase (Photinus pyralis)	false (0)
CC(C)(C)OC(=O)CC[C@]1(C(=O)NCCN2CCOCC2)N=C(c2ccc(OCCCO)cc2)O[C@H]1c1ccccc1	Luciferin 4-monooxygenase (Photinus pyralis)	false (0)

* * *

- test.name: MM1S cell viability effects, profiling panel, calcein-AM fluorescence, 48 h, basal (AID 1165);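 note: viability of MM1S multiple myeloma cells under basal unstimulated conditions; test concentration not given here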
- condition.summary: higher = more signal
// class assignment uses z-score with these ranges: low end = under -0.8, middle = from -0.8 up to -0.2, high end = -0.2 and over

compound	label
CN(C)CCCCNC(=O)[C@H]1C[C@H]2C(=O)N3CCC[C@H]3C(=O)N2[C@H]1c1ccc(O)cc1	high end
CC(C)(C)OC(=O)CC[C@]1(C(=O)NCCN2CCOCC2)N=C(c2ccc(OCCCO)cc2)O[C@H]1c1ccccc1	high end
CN1C(=O)C2C=CC(C(O)C3CCCCC3)N(N3CCCCC3)C2C1=O (configuration not stated)	high end
O=C1c2ccccc2[C@](Cc2ccccc2I)(C(=O)NCCN2CCOCC2)[C@H](c2ccc(CO)cc2)N1Cc1ccccc1	high end
COc1ccc(C(O)C2C=CC3C(=O)N(c4ccccc4)C(=O)C3N2Nc2ccc(C#N)cc2)c2ccccc12 (configuration not stated)	high end
Cc1ccc(S[C@]2(C(=O)NCC(F)(F)F)CC(=O)N(Cc3ccccc3)[C@@H]2c2ccc(CO)cc2)cc1	high end
COCCOC(=O)N1C(=O)[C@@]2(c3cc(C#CC4(O)CCCCCC4)ccc31)[C@H](C(=O)N1CCCCCCC1)[C@H]1C(=O)O[C@H](c3ccccc3)[C@H](c3ccccc3)N1[C@@H]2c1ccc(OCCO)cc1	low end
CC=CC(O)C1C=CC2C(=O)N(C)C(=O)C2N1N1CCCCC1 (configuration not stated)	middle
CN1C2C=C(CCCO)C(C3C(=O)N(C(N)=O)C(=O)C32)C1c1cccs1 (configuration not stated)	middle
COC(=O)[C@@]1(Cc2ccccc2)[C@H]2c3cc(C(=O)N4CCCC4)n(Cc4cc(F)cc5c4OCOC5)c3C[C@H]2CN1C(=O)c1ccccc1	high end
COC(=O)c1c(CC[C@@H](CO)NC(=O)N[C@H](Cn2cc(-c3ccccc3C)nn2)C(C)C)oc(C(C)=O)c1C(=O)OC	middle
C[C@H]1C2=C3C(CC[C@H]4C(OCc5ccc(F)cc5C(F)(F)F)OC[C@](C)([C@@H]34)N(C(=O)OC(C)(C)C)C2)C(CO)C1CO (some centres not stated)	low end
C=CCC(OC(C)=O)[C@@H]1[C@@H](N(Cc2cc3ccccc3o2)C(=O)c2ccc(C)cc2)c2cc(OCCCO)ccc2N1C(=O)Cc1ccc2ccccc2c1 (some centres not stated)	middle
COC(=O)[C@H](Cc1ccccc1)N1CC(/C=C/C2CC2)=C[C@@H]1[C@@H](O)Cc1ccccc1	low end
C=CCN1Cc2ccccc2C[C@@]2(N=C(c3ccc(OCCCO)cc3)O[C@H]2c2ccccc2)C1=O	low end
O=C1O[C@@H](c2ccccc2)[C@@H](c2ccccc2)N2[C@@H](c3ccc(O)cc3)[C@]3(C(=O)Nc4ccc(C#CCCO)cc43)[C@@H](C(=O)Nc3nc4ccccc4s3)[C@H]12	low end
CN(C)CCCNC(=O)[C@@]1(C)c2ccccc2C(=O)N(Cc2cc(C(F)(F)F)cc(C(F)(F)F)c2)[C@H]1c1ccc(CO)cc1	middle
O=C1O[C@@H](c2ccccc2)[C@@H](c2ccccc2)N2[C@@H](c3ccccc3OCCO)[C@]3(C(=O)Nc4ccc(C#CCCO)cc43)[C@@H](C(=O)Nc3nc4ccccc4s3)[C@H]12	middle
COCCOC(=O)N1C(=O)[C@@]2(c3cc(C#CC4(O)CCCCCC4)ccc31)[C@H](C(N)=O)[C@H]1C(=O)O[C@H](c3ccccc3)[C@H](c3ccccc3)N1[C@@H]2c1ccccc1OCCO	low end
Cc1c(NC(=O)/C(C#N)=C/C=C/c2ccccc2[N+](=O)[O-])c(=O)n(-c2ccccc2)n1C	low end
CCOC(=O)C[C@H]1[C@H](OC(=O)c2ccccc2-c2ccccc2)[C@@H](NC(=O)c2ccc3ccccc3n2)c2cc(OCCCO)ccc2N1C(=O)c1ccc2ccccc2n1	high end
CC(C)N1CC=CC23O[C@@H]4C=CCOC(=O)[C@@H]4[C@H]2C(=O)N(C(C)CO)[C@@H]3C1=O (some centres not stated)	high end
CCOC(=O)C[C@H]1[C@H](OC(=O)c2ccc(-c3ccccc3)cc2)[C@@H](NC(=O)C2CCCCC2)c2cc(OCCCO)ccc2N1C(=O)c1ccccc1	middle
C=CCNC(=O)[C@H]1[C@@H]2C(=O)O[C@@H](c3ccccc3)[C@@H](c3ccccc3)N2[C@@H](c2ccccc2OCCO)[C@]12C(=O)N(C(=O)OCCOC)c1ccc(C#CC3=CCCCC3)cc12	low end
CC(C)c1ccc(NN2C(C(O)c3ccco3)C=CC3C(=O)N(c4ccccc4)C(=O)C32)cc1 (configuration not stated)	high end
COc1ccc(C(O)C2C=CC3C(=O)N(C)C(=O)C3N2N2CCCCC2)cc1 (configuration not stated)	middle
CCOC(=O)[C@@H]1[C@@H]2C(=O)N(CC)C(=O)[C@@H]2C[C@@H]1Sc1ccccc1	middle
